- test_name: Solubility evaluation in distilled water and at several pH values
- condition_description: distilled water, 37 °C, water, thermodynamic from solid
Structures can show the parent of a compound that is named as a salt.
reported_property: solubility
Write the numeric value and append its unit.

IN: Determine its reported solubility: CC(C)CC(N(C)C)C1(c2ccc(Cl)cc2)CCC1 (stereo not shown) [Sibutramine HCl monohydrate, Sibutramine hydrochloride monohydrate, reference compound]
OUT: 26.2 mg/mL

* * *

- test_name: Solubility evaluation in distilled water and at several pH values
- condition_description: 37 °C, pH 5.3, aqueous buffer, thermodynamic from solid
Structures can show the parent of a compound that is named as a salt.
reported_property: solubility
Write the numeric value and append its unit.

IN: Determine its reported solubility: CC(C)CC(N(C)C)C1(c2ccc(Cl)cc2)CCC1 (stereo not shown) [Sibutramine HCl monohydrate, Sibutramine hydrochloride monohydrate, reference compound]
OUT: 6580 µg/mL
